In this section we review reported bioavailability values for a set of compounds.
Experiment: Preliminary pharmacokinetics
Conditions: rat, in vivo; oral
Parameter: bioavailability (%)

1. Nc1ccccc1NC(=O)c1ccc(CNc2ncnc3ccccc23)cc1 28.6
2. COc1cccc2c(Nc3ccc(C(=O)Nc4ccccc4N)cc3)ncnc12 19

====

Tested on: Hep3B2.1-7 human liver cancer cells
Assay: In vitro anti-proliferative effect, CCK-8 method, Hep3B
Type: cell-based
Conditions: Homo sapiens; Hep3B cell strain, compound at 10 μM, CCK-8 method
In this section we review reported inhibition at 10 µM values for a set of compounds.

Compound	Target	inhibition at 10 µM (%)
COc1cc2ncnc(Nc3ccc(C(=O)Nc4ccccc4N)cc3)c2cc1OCCCN1CCOCC1 [Compound V-17]	Hep3B2.1-7 human liver cancer cells	18.4
COc1ccc2ncnc(Nc3ccc(C(=O)Nc4cc(F)ccc4N)cc3)c2c1 [Compound V-6]	Hep3B2.1-7 human liver cancer cells	-7
Nc1ccc(F)cc1NC(=O)c1ccc(CNc2ncnc3ccccc23)cc1 [Compound V-29]	Hep3B2.1-7 human liver cancer cells	22.5
COc1cccc2ncnc(Nc3ccc(C(=O)Nc4ccncc4N)cc3)c12 [Compound V-8]	Hep3B2.1-7 human liver cancer cells	5

====

Molecular target: HDAC1 (Homo sapiens (Human))
Assay: In vitro inhibition of subtype HDAC1 (HDAC1 Inhibitor Drug Screening Kit, Biovision)
Assay type: biochemical
Details: 10 μM; read-out: % Inhibition towards HDAC1
Could you label it t if measured inhibition at 10 µM is 60% or higher, and f otherwise?

Molecule	Discrete Label
COc1cc2ncnc(Nc3ccc(C(=O)Nc4cc(-c5ccccc5)ccc4N)cc3)c2cc1OC [Compound V-24]	t
COc1cc2ncnc(Nc3ccc(C(=O)Nc4ccccc4N)cc3)c2cc1OCCCN1CCOCC1 [Compound V-17]	t
COC(=O)Cc1ccc2ncnc(Nc3ccc(C(=O)Nc4ccccc4N)cc3)c2c1 [Compound V-22]	t
Nc1ccc(F)cc1NC(=O)c1ccc(Nc2ncnc3c(F)cccc23)cc1 [Compound V-14]	f
CC(=O)Nc1ccc2ncnc(Nc3ccc(C(=O)Nc4ccccc4N)cc3)c2c1 [Compound V-21]	t
COc1cccc2c(Nc3ccc(C(=O)Nc4cc(F)ccc4N)cc3)ncnc12 [Compound V-10]	t
Nc1ccccc1NC(=O)c1ccc(Nc2ncnc3ccc([N+](=O)[O-])cc23)cc1 [Compound V-11]	f
Nc1ccccc1NC(=O)c1ccc(CNc2ncnc3ccccc23)cc1 [Compound V-27]	t

====

Experiment: Maximum tolerance dose through intragastrical administration
Format: in vivo
Conditions: mice, administrated intragastrically

Compound	maximum tolerance dose
Nc1ccccc1NC(=O)c1ccc(Nc2ncnc3ccc([N+](=O)[O-])cc23)cc1 [Compound V-11]	over 2000 mg/kg
Nc1ccccc1NC(=O)c1ccc(Nc2ncnc3cc(F)ccc23)cc1 [Compound V-13]	over 5000 mg/kg
COc1cc2ncnc(Nc3ccc(C(=O)Nc4cc(-c5ccco5)ccc4N)cc3)c2cc1OC [Compound V-25]	over 5000 mg/kg
COc1ccc2ncnc(Nc3ccc(C(=O)Nc4ccccc4N)cc3)c2c1 [Compound V-5]	over 2000 mg/kg

====

System: Hep3B2.1-7 human liver cancer cells
Test: In vitro anti-proliferative effect, CCK-8 method, Hep3B
Format: cell-based
Conditions: Homo sapiens; Hep3B cell strain, compound at 10 μM, CCK-8 method
Parameter: inhibition at 10 µM (%)

1. COc1ccc2ncnc(Nc3ccc(C(=O)Nc4ccccc4N)cc3)c2c1 7.3
2. Nc1ccccc1NC(=O)c1ccc(Nc2ncnc3ccc(F)cc23)cc1 4.7
3. Nc1ccccc1NC(=O)c1ccc(Nc2ncnc3ccc([N+](=O)[O-])cc23)cc1 22.3
4. COc1cc2ncnc(Nc3ccc(C(=O)Nc4cc(-c5ccco5)ccc4N)cc3)c2cc1OC 11.3

====

Experiment: Maximum tolerance dose through intragastrical administration
Type: in vivo
Details: mice, administrated intragastrically
Parameter: maximum tolerance dose

Molecule	Recorded Value
Nc1ccccc1NC(=O)c1ccc(CNc2ncnc3ccccc23)cc1 [Compound V-27]	over 2000 mg/kg
COc1cc2ncnc(Nc3ccc(C(=O)Nc4cc(-c5ccccc5)ccc4N)cc3)c2cc1OC [Compound V-24]	over 2000 mg/kg
Nc1ccc(F)cc1NC(=O)c1ccc(CNc2ncnc3ccccc23)cc1 [Compound V-29]	over 5000 mg/kg
CC(=O)Nc1ccc2ncnc(NCc3ccc(C(=O)Nc4ccncc4N)cc3)c2c1 [Compound V-47]	over 5000 mg/kg
COc1cc2ncnc(Nc3ccc(C(=O)Nc4cc(F)ccc4N)cc3)c2cc1OCCCN1CCOCC1 [Compound V-18]	over 2000 mg/kg
COc1cc2ncnc(Nc3ccc(C(=O)Nc4ccccc4N)cc3)c2cc1OCCCN1CCOCC1 [Compound V-17]	over 5000 mg/kg
COc1ccc2ncnc(Nc3ccc(C(=O)Nc4cc(F)ccc4N)cc3)c2c1 [Compound V-6]	over 5000 mg/kg
CS(=O)(=O)CCNCc1ccc(-c2ccc3ncnc(Nc4ccc(C(=O)Nc5cc(F)ccc5N)cc4)c3c2)o1 [Compound V-20]	over 5000 mg/kg
CC(=O)Nc1ccc2ncnc(NCc3ccc(C(=O)Nc4ccccc4N)cc3)c2c1 [Compound V-46]	over 2000 mg/kg
COc1cc2ncnc(Nc3ccc(C(=O)Nc4ccncc4N)cc3)c2cc1OC [Compound V-4]	over 5000 mg/kg
Nc1ccc(F)cc1NC(=O)c1ccc(Nc2ncnc3c(F)cccc23)cc1 [Compound V-14]	over 2000 mg/kg
Nc1cnccc1NC(=O)c1ccc(Nc2ncnc3ccccc23)cc1 [Compound V-2]	over 2000 mg/kg
COc1cccc2c(Nc3ccc(C(=O)Nc4ccccc4N)cc3)ncnc12 [Compound V-9]	over 5000 mg/kg
Nc1ccccc1NC(=O)c1ccc(CNc2ncnc3c(F)cccc23)cc1 [Compound V-43]	over 5000 mg/kg
COC(=O)Cc1ccc2ncnc(Nc3ccc(C(=O)Nc4ccccc4N)cc3)c2c1 [Compound V-22]	over 2000 mg/kg

====

Test system: HDACs
Assay: In vitro inhibition of HDACs (HDAC Inhibitor Drug Screening Kit, Biovision K340-100)
Format: biochemical
Settings: 40 μM
In this section we review reported Inhibition percentage (%) towards HDACs values for a set of compounds.
Parameter: Inhibition percentage (%) towards HDACs

1) COCCOc1cc2ncnc(Nc3ccc(C(=O)Nc4ccncc4N)cc3)c2cc1OCCOC 24.8%
2) COc1cc2ncnc(Nc3ccc(C(=O)Nc4ccncc4N)cc3)c2cc1OC 36.3%
3) COc1ccc2c(NCc3ccc(C(=O)Nc4ccccc4N)cc3)ncnc2c1 2.2%
4) Nc1ccccc1NC(=O)c1ccc(Nc2ncnc3cc(F)ccc23)cc1 1.0%

====

In this section we review reported inhibition at 1 µM values for a set of compounds.
Target: HDAC1 (Homo sapiens (Human), UniProt Q13547)
Sequence (Q13547 whole entry): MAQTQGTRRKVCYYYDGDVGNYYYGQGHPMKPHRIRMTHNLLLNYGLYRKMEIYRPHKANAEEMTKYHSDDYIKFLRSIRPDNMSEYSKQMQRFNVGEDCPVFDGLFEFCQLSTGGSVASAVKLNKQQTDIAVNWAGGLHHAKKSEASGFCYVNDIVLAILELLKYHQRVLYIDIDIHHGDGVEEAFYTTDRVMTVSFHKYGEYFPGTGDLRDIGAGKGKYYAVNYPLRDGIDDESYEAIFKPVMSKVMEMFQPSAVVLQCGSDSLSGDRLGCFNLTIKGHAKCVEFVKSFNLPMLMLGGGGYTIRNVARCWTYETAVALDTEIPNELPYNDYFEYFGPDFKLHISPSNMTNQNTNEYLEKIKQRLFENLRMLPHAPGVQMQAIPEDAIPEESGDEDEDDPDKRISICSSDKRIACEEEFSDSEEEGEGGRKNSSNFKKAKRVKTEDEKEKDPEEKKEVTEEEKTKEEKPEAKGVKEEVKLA
Assay: In vitro inhibition of subtype HDAC1 (HDAC1 Inhibitor Drug Screening Kit, Biovision)
Type: biochemical
Details: 1 μM; read-out: % Inhibition towards HDAC1
Parameter: inhibition at 1 µM

1. CS(=O)(=O)CCNCc1ccc(-c2ccc3ncnc(Nc4ccc(C(=O)Nc5ccccc5N)cc4)c3c2)o1 47.6%
2. Nc1ccc(F)cc1NC(=O)c1ccc(Nc2ncnc3c(F)cccc23)cc1 1.48%
3. COc1cccc2ncnc(Nc3ccc(C(=O)Nc4ccncc4N)cc3)c12 21.4%
4. COc1cc2ncnc(Nc3ccc(C(=O)Nc4ccccc4N)cc3)c2cc1OCCCN1CCOCC1 53.9%
5. CS(=O)(=O)CCNCc1ccc(-c2ccc3ncnc(Nc4ccc(C(=O)Nc5cc(F)ccc5N)cc4)c3c2)o1 53.5%
6. Nc1ccc(F)cc1NC(=O)c1ccc(CNc2ncnc3ccccc23)cc1 41.4%

====

Tested on: A549 human lung cancer cells
Assay: In vitro anti-proliferative effect, CCK-8 method, A549
Type: cell-based
Details: Homo sapiens, A549; 10 μM
In this section we review reported inhibition at 10 µM values for a set of compounds.

Compound	inhibition at 10 µM
COc1cc2ncnc(NCc3ccc(C(=O)Nc4cc(-c5cccs5)ccc4N)cc3)c2cc1OC [Compound V-31]	56.3%
COc1ccc2ncnc(Nc3ccc(C(=O)Nc4ccccc4N)cc3)c2c1 [Compound V-5]	-44.3%
COc1cccc2c(Nc3ccc(C(=O)Nc4cc(F)ccc4N)cc3)ncnc12 [Compound V-10]	-4.4%
Nc1ccccc1NC(=O)c1ccc(CNc2ncnc3ccccc23)cc1 [Compound V-27]	82.8%
Nc1ccccc1NC(=O)c1ccc(Nc2ncnc3ccc(F)cc23)cc1 [Compound V-12]	-9%
COc1cc2ncnc(Nc3ccc(C(=O)Nc4ccccc4N)cc3)c2cc1OCCCN1CCOCC1 [Compound V-17]	29.8%
COc1cccc2ncnc(Nc3ccc(C(=O)Nc4ccncc4N)cc3)c12 [Compound V-8]	-5.9%
COc1cccc2ncnc(Nc3ccc(C(=O)Nc4ccccc4N)cc3)c12 [Compound V-7]	-7.4%
COc1cc2ncnc(Nc3ccc(C(=O)Nc4cc(-c5ccco5)ccc4N)cc3)c2cc1OC [Compound V-25]	2.4%
CC(=O)Nc1ccc2ncnc(NCc3ccc(C(=O)Nc4ccccc4N)cc3)c2c1 [Compound V-46]	7.7%
CC(=O)Nc1ccc2ncnc(NCc3ccc(C(=O)Nc4ccncc4N)cc3)c2c1 [Compound V-47]	9.4%
Nc1cnccc1NC(=O)c1ccc(CNc2ncnc3ccccc23)cc1 [Compound V-26]	4.2%
Nc1ccc(F)cc1NC(=O)c1ccc(CNc2ncnc3ccccc23)cc1 [Compound V-29]	6.3%
COc1ccc2ncnc(Nc3ccc(C(=O)Nc4cc(F)ccc4N)cc3)c2c1 [Compound V-6]	-16.9%
COc1cc2ncnc(Nc3ccc(C(=O)Nc4ccncc4N)cc3)c2cc1OC [Compound V-4]	-43.9%
Nc1ccccc1NC(=O)c1ccc(Nc2ncnc3ccccc23)cc1 [Compound V-1]	50.6%
Nc1ccccc1NC(=O)c1ccc(Nc2ncnc3cc(F)ccc23)cc1 [Compound V-13]	18.3%
COc1cc2ncnc(Nc3ccc(C(=O)Nc4cc(F)ccc4N)cc3)c2cc1OCCCN1CCOCC1 [Compound V-18]	9.5%

All values here come from patent US9034886B2.
